Study target: HLA-A*02:01
Method: IEDB peptide-MHC binding, purified MHC/direct/fluorescence; filed as Kd, often an IC50 or EC50 that approximates it; bounds were set here for any values at or beyond the usual limits of such assays
Run conditions: source organism: Burkholderia mallei ATCC 23344

# Residue string, Study target, Kd
measured = [
    ("LVTGAGSGF", "HLA-A*02:01", "≥ 20 µM"),
]

###

Study target: HLA-B*57:01
Method: IEDB peptide-MHC binding, purified MHC/direct/fluorescence; filed as Kd, often an IC50 or EC50 that approximates it; bounds were set here for any values at or beyond the usual limits of such assays
Run conditions: source organism: Burkholderia mallei ATCC 23344

# Residue string, Kd
rows = [
    ("LVTGAGSGF", "≥ 20 µM"),
]

###

Study target: HLA-A*24:03
Method: IEDB peptide-MHC binding, purified MHC/direct/fluorescence; filed as Kd, often an IC50 or EC50 that approximates it; bounds were set here for any values at or beyond the usual limits of such assays
Run conditions: source organism: Burkholderia mallei ATCC 23344

# Residue string, Kd
rows = [
    ("LVTGAGSGF", "≥ 20 µM"),
]

###

Study target: HLA-A*02:06
Method: IEDB peptide-MHC binding, purified MHC/competitive/radioactivity; filed as Kd, often an IC50 or EC50 that approximates it; bounds were set here for any values at or beyond the usual limits of such assays
Run conditions: source organism: HIV-1 M:B_ARV2/SF2
pKd: −log10 of the molar value.

# Residue string, Study target, pKd
records = [
    ("FLGKIWPSYK", "HLA-A*02:06", 5.52),
]

###

The reader will find reported Kd values listed item by item below.
Study target: HLA-A*31:01
Method: IEDB peptide-MHC binding, purified MHC/competitive/radioactivity; filed as Kd, often an IC50 or EC50 that approximates it; bounds were set here for any values at or beyond the usual limits of such assays
Run conditions: source organism: Vaccinia virus WR
Measurement name: Kd (µM)

# Residue string, Study target, Value units, Censoring sign, Value measured
records = [
    ("CSKHMDARY", "HLA-A*31:01", "µM", "≥", 45.2),
    ("SSSVDVDIY", "HLA-A*31:01", "µM", "=", 2.73),
    ("ASTISWMMK", "HLA-A*31:01", "µM", "=", 1.82),
    ("ILQLIRHGR", "HLA-A*31:01", "µM", "=", 0.000975),
    ("TFMIITSTK", "HLA-A*31:01", "µM", "=", 0.367),
    ("SSTCSAVTDR", "HLA-A*31:01", "µM", "=", 0.123),
    ("RFVEELLHR", "HLA-A*31:01", "µM", "=", 0.0197),
    ("DIDILQTNSR", "HLA-A*31:01", "µM", "=", 0.711),
    ("YTFFSYLMK", "HLA-A*31:01", "µM", "=", 3.96),
    ("NMVSDTIMKR", "HLA-A*31:01", "µM", "=", 0.307),
    ("IILARNEEGR", "HLA-A*31:01", "µM", "=", 0.0712),
    ("SILSLETVK", "HLA-A*31:01", "µM", "=", 2.61),
    ("RSKQKIGDLR", "HLA-A*31:01", "µM", "=", 0.0483),
    ("GVTSSGAIYK", "HLA-A*31:01", "µM", "=", 1.35),
    ("STIANSNIIK", "HLA-A*31:01", "µM", "=", 1.13),
    ("NTLISSDGAR", "HLA-A*31:01", "µM", "=", 0.26),
    ("FLRSIAMLK", "HLA-A*31:01", "µM", "=", 0.153),
    ("DAKNDDWKKY", "HLA-A*31:01", "µM", "≥", 70),
    ("VSLVKKNKKR", "HLA-A*31:01", "µM", "=", 0.324),
    ("IFVSLVKKNK", "HLA-A*31:01", "µM", "=", 0.0691),
    ("ESKAKQLCY", "HLA-A*31:01", "µM", "≥", 77.9),
]
